Tested on: CP217
RUN_DESCRIPTION: qHTS profiling for inhibitors of Plasmodium falciparum proliferation (AID 504749); further: nearly all actives have a fitted effect of over 60% in size; further: potency means the concentration at half of the fitted maximal effect
CONDITIONS_USED: P. falciparum in erythrocytes, SYBR Green DNA, 72 h; series mostly up to 28.7 µM
Inconclusive results are not listed. The source made the active and inactive calls. The call rests on the fitted dose curve; in most records, active means well fitted inhibition curve with a large enough effect; inconclusive means small, poorly fitted or top-dose-only effect; inactive means flat fitted curve, though single readings scatter.
QUANTITY_KIND: Potency

For orientation, consider the following solved cases.
compound=NC(=O)n1c(O)c(C(=O)c2cccs2)c2cc(Cl)ccc21 assayed_target=CP217 result=inactive
compound=CCCCCCCCCCCCCCCCO assayed_target=CP217 result=inactive
compound=CCCCCCCCCCCCCCCC(=O)O assayed_target=CP217 result=inactive
compound=CCOc1ccccc1C(N)=O assayed_target=CP217 result=inactive
compound=COc1cc(O)c(C(=O)c2ccccc2)cc1S(=O)(=O)O assayed_target=CP217 result=inactive

--- query ---
If you can, please state the reported Potency value of "CCCCc1cc2ccccc2c(OCCN(C)C)n1" . inactive

* * *

RUN_DESCRIPTION: Primary qHTS for inhibitors of La Crosse Virus (LACV) - induced cell death in SH-SY5Y cells (AID 1508616);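 further: top concentration of the series differs between compounds; 0% = infected DMSO wells and 100% = uninfected DMSO wells; higher means more rescue of cells from virus-induced death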
CONDITIONS_USED: SH-SY5Y LACV cytopathicity rescue, ATP luminescence, 6 d; series mostly up to 4.29 µM
Results filed as inconclusive are left out. Active and inactive are the calls of the source. The call rests on the fitted dose curve; in most records, active means well fitted inhibition curve with a large enough effect; inconclusive means small, poorly fitted or top-dose-only effect; inactive means no such curve, though single readings can be large or run the other way.
QUANTITY_KIND: outcome

Some entries whose results are on file:
compound="CC(C)CCCC(C)N (stereo unspecified)" result=inactive
compound=NC(N)=NCc1cccc(I)c1 result=inactive
compound=C#C[C@]1(O)CC[C@H]2[C@@H]3[C@H](C)CC4=C(CCC(=O)C4)[C@H]3CC[C@@]21C result=inactive
compound=O=C(Nc1ccc([N+](=O)[O-])cc1)Nc1ccc([N+](=O)[O-])cc1 result=inactive
compound="CC(C)[N+](C)(C)CC(O)COc1cccc2ccccc12 (stereo unspecified)" result=inactive

Would you kindly look at the next entry?
Return reported outcome; argument: "CC(=O)OC[C@H]1O[C@@H](n2ncc(=O)[nH]c2=O)[C@H](OC(C)=O)[C@@H]1OC(C)=O" inactive

* * *

RUN_DESCRIPTION: Cellular Toxicity (caspase-3) N2a (AID 665);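 further: compound exposure lasted 16 h at 37 °C before readout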
CONDITIONS_USED: N2a cells, luminescence, normalized: DMSO 0%, 10 µM staurosporine 100%; series mostly up to 92.2 µM
Activity calls are given as the source filed them. The call rests on the fitted dose curve; in most records, active means well fitted activation curve with a large enough effect; inconclusive means small, poorly fitted or top-dose-only effect; inactive means flat fitted curve, though single readings scatter.
QUANTITY_KIND: outcome

smiles_str=OC[C@H]1O[C@@H]2O[C@H]3[C@H](O)[C@@H](O)[C@@H](O[C@H]4[C@H](O)[C@@H](O)[C@@H](O[C@H]5[C@H](O)[C@@H](O)[C@@H](O[C@H]6[C@H](O)[C@@H](O)[C@@H](O[C@H]7[C@H](O)[C@@H](O)[C@@H](O[C@H]8[C@H](O)[C@@H](O)[C@@H](O[C@H]1[C@H](O)[C@H]2O)O[C@@H]8CO)O[C@@H]7CO)O[C@@H]6CO)O[C@@H]5CO)O[C@@H]4CO)O[C@@H]3CO result=inactive
smiles_str=CCOc1ccc(NC(C)=O)cc1 result=inactive

* * *

Tested on: SC27B
RUN_DESCRIPTION: qHTS profiling for inhibitors of Plasmodium falciparum proliferation (AID 504749); further: nearly all actives have a fitted effect of over 60% in size
CONDITIONS_USED: P. falciparum in erythrocytes, SYBR Green DNA, 72 h; series mostly up to 28.7 µM
Records with an inconclusive call do not appear. Activity calls are given as the source filed them. Calls come from the whole dose curve; as a rule, active = well fitted inhibition curve with a large enough effect; inconclusive = small, poorly fitted or top-dose-only effect; inactive = flat fitted curve, though single readings scatter.
Respond using exactly one of the listed classes: yes (1) for active, no (0) for inactive

Reference set, count: 5
compound=CCN1/C(=C/C=C/c2sc3ccccc3[n+]2CC)Sc2ccccc21 answer_label="yes (1)"
compound="CC(C)[N+](C)(C)CC(O)COc1cccc2ccccc12 (stereo unspecified)" answer_label="no (0)"
compound=COc1cc(C(=S)N2CCOCC2)ccc1O answer_label="no (0)"
compound="COP(=O)(OC)OC(c1ccc(Cl)cc1)P(=O)(OC)OC (stereo unspecified)" answer_label="no (0)"
compound=NS(=O)(=O)Cc1noc2ccccc12 answer_label="no (0)"

So what was the verdict on "Cl/C(=C\n1cncn1)c1ccc(Cl)cc1Cl" in this test? no (0)

Dear all, I need the recorded test outcome for "CCCCc1cc2ccccc2c(OCCN(C)C)n1" , thank you. no (0)

Lab log entry: "COc1cc(O)c(C(=O)c2ccccc2)cc1S(=O)(=O)O" — outcome as called in the assay? no (0)

// param item: CCCCCCCCNC(C)C(O)c1ccc(SC(C)C)cc1 (stereo unspecified) ; yields the recorded call yes (1)

Query: recorded result category for "CCOC(=O)[C@H](CCc1ccccc1)N[C@@H](C)C(=O)N1[C@H](C(=O)O)C[C@H]2CCCC[C@@H]21" in this test no (0)

Name the outcome recorded for "C#C[C@]1(OC(C)=O)CC[C@H]2[C@@H]3CCC4=C/C(=N/O)CC[C@@H]4[C@H]3CC[C@@]21CC" in the assay. no (0)
